# Tested on: BJ
# Assay Method Text: BJ-TERT-LT-ST fibroblast viability loss – cell-based, RAS-independent, luminescence, dose response (AID 1935);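 further: BJ fibroblasts immortalized with TERT plus LT and ST oncogenes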
# Format: functional
# Run Conditions: Homo sapiens
The source made the active and inactive calls.
Reported Endpoint: EC50

Entry Cc1ccc(NC(=O)CCc2c[nH]c3ccccc23)nc1 — recorded EC50 = > 150 µM (inconclusive)

Entry Cc1cccc(NC(=O)[C@H](Cc2c[nH]c3ccccc23)NC(=O)[C@@H]2Cc3ccccc3CN2)c1 — recorded EC50 = > 150 µM (not active)

Entry CCCN(CC(=O)Nc1ccccc1C)C(=O)CCl — recorded EC50 = > 150 µM (inconclusive)

Entry O=c1c2ccccc2nc(/C=C/c2ccc([N+](=O)[O-])o2)n1CCCO — recorded EC50 = 3.96 µM (active)

Entry CC1=CC(=O)C=C(C)C1=NOS(=O)(=O)c1ccccc1 — recorded EC50 = 5.67 µM (inconclusive)

----------
# Tested on: Streptococcus
# Assay Method Text: GAS UMAA2166 growth inhibition – luminescence, BacTiterGlo, counter-screen for streptokinase expression inhibitor project, dose response (AID 1915);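 further: potency for reduction of bacterial viability or growth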
# Type: functional, organism-based
Calls of active or inactive are those of the source.
Reported Endpoint: EC50

Entry COc1cccc(NC(S)=NN=C2CCCCCC2)c1 — recorded EC50 = > 150 µM (not active)

Entry O=C(Nc1nnc(C2CC2)s1)c1cc(-c2ccccc2)nn1-c1ccccc1 — recorded EC50 = 20.8 µM (active)

Entry O=C(Nc1nc(-c2ccccn2)cs1)Nc1ccc(F)cc1F — recorded EC50 = 2.33 µM (active)

Entry O=C(CSc1nc(N2CCOCC2)nc(N2CCOCC2)n1)Nc1cccc(C(F)(F)F)c1 — recorded EC50 = > 150 µM (not active)

Entry CCCC(=O)NC(c1ccc(Cl)cc1)c1ccc2cccnc2c1O (stereo unspecified) — recorded EC50 = 30.1 µM (active)

Entry O=C(NC(NC(=S)Nc1cccc(Cl)c1)C(Cl)(Cl)Cl)OCc1ccccc1 (stereo unspecified) — recorded EC50 = 5.92 µM (active)

----------
Please go through the items and note down their EC50.
# Target Desc: Endoribonuclease toxin MazF (Escherichia coli K-12, UniProt P0AE70)
# Sequence (P0AE70 whole entry): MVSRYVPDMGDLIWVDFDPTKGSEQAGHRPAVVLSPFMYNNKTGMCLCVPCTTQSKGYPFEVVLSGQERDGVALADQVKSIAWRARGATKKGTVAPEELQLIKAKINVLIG
# Assay Method Text: activation of MazEF endoribonuclease cleavage – biochemical, fluorescence, single-stranded RNA substrate, uHTS hits, dose response (AID 588481)
# Type: functional
Calls of active or inactive are those of the source.

Entry CC(=O)Oc1c(/C=C(\C#N)C(N)=O)[nH]c2ccccc12 — recorded EC50 = > 99 µM (inactive)

Entry CCN(CC)S(=O)(=O)c1ccc(Cl)c(NC(=O)c2cc(Cl)ccc2Cl)c1 — recorded EC50 = > 99 µM (inactive)

Entry Cc1cc(O)c(/C=N/c2ccc(N3CCOCC3)cc2)c(C)c1Cl — recorded EC50 = 53.5 µM (inactive)

Entry CCCN1C(=O)/C(=C/c2c(NCCCOC(C)C)nc3c(C)cccn3c2=O)SC1=S — recorded EC50 = 16 µM (active)

Entry CC(=O)c1cc2c(C)c(C(=O)c3ccccc3)oc2cc1O — recorded EC50 = > 99 µM (inactive)

----------
# Target Desc: Cytochrome P450 2C19 (Homo sapiens)
# Sequence (P33261 whole entry): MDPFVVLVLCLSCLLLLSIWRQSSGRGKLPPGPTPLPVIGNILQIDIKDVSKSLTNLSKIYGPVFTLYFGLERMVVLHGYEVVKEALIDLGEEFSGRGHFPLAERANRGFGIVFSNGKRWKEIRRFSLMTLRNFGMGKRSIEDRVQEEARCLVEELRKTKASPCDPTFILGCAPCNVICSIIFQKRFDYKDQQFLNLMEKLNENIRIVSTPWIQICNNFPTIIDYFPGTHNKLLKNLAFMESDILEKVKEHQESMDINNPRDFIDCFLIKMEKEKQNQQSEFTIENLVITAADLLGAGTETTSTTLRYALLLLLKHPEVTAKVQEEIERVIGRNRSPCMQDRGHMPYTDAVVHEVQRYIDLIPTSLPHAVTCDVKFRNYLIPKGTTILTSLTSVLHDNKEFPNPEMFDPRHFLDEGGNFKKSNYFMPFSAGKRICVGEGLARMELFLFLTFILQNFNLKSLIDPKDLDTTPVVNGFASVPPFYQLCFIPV
# Assay Method Text: Cytochrome panel assay with activity outcomes. Panel member name: p450-cyp2c19 Compounds with AC50 equal or less than 10 uM are considered active
# Assay type: functional
# Run Conditions: read-out: AC50
Please go through the items and note down their AC50.

Entry O=C(O)CCC(=O)CCC(=O)c1ccccc1 — recorded AC50 = 39.8 µM (inconclusive)

Entry Cc1ccc(-c2nnn(CC(=O)N(c3ccccc3)C(C(=O)NCC3CCCO3)c3ccc(Cl)cc3)n2)cc1 (stereo unspecified) — recorded AC50 = 1.12 µM (inconclusive)

Entry Cc1ccccc1OCCCN1CCCC1 — recorded AC50 = 10 µM (inconclusive)

Entry c1cncc(CNc2nc(-c3cccnc3)nc3ccccc23)c1 — recorded AC50 = 39.8 µM (inconclusive)

Entry CCc1ccc(CN(C(=O)c2cc3ccccc3oc2=O)C2CCS(=O)(=O)C2)cc1 (stereo unspecified) — recorded AC50 = 20 µM (inconclusive)

Entry COc1cc2c(cc1C(F)(F)F)N(C(=O)Nc1cc(F)cc(-c3cccnc3)c1)CC2 — recorded AC50 = 10 µM (inconclusive)

Entry Cc1ccc2[nH]c(-c3ccc(NC(=O)Cc4cccs4)cc3)nc2c1 — recorded AC50 = 1 µM (inconclusive)

Entry CCCc1nc2sc3ccccc3c(=O)c2c(=O)n1CCOC — recorded AC50 = 39.8 µM (inconclusive)

Entry Cc1ccc(-c2nc3ccccc3s2)cc1NC(=S)NC(=O)c1ccccc1 — recorded AC50 = 22.4 µM (inconclusive)

Entry COc1cc(/C=C/C(=O)Nc2ccccc2C(F)(F)F)cc(OC)c1OC — recorded AC50 = 17.8 µM (inconclusive)

Entry COc1ccc(NC(=O)c2ccc(C)cc2Cl)c([N+](=O)[O-])c1 — recorded AC50 = 3.55 µM (inconclusive)

----------
# Target Desc: UniProtKB Q38C41
# Sequence (Q38C41 whole entry): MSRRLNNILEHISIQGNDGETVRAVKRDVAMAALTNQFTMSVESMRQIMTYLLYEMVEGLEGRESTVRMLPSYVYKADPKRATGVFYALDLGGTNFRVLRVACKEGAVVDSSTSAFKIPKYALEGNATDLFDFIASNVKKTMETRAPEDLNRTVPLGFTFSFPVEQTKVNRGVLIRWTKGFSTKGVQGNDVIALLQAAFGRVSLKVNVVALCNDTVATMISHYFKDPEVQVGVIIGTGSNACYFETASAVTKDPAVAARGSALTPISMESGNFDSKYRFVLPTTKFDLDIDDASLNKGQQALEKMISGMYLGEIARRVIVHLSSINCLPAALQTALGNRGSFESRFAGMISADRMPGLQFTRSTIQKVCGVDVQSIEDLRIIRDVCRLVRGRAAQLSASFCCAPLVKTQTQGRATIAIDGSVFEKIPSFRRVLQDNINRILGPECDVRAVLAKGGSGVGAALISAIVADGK
# Assay Method Text: Confirmation assay for inhibitors of Trypanosoma brucei hexokinase 1-Analogue-first series. [Related pubchem assays (depositor defined):AID1430, AID1632, AID2516, AID2560, AID2579, AID2600, AID449725, AID492951]
# Type: functional
Activity calls are given as the source filed them.
Allowed answers: active, inactive

[Q] For CN(C)c1cccc(NC(=O)Cn2sc3ccccc3c2=O)c1 , what call appears in the results of this test?
[A] active

[Q] For COc1ccccc1NC(=O)Cn1sc2ccccc2c1=O , what call appears in the results of this test?
[A] active

[Q] For O=C(Cn1sc2ccccc2c1=O)Nc1ccc(F)cc1 , what call appears in the results of this test?
[A] active

[Q] For Cc1ccc(-n2sc3ccccc3c2=O)cc1 , what call appears in the results of this test?
[A] active

[Q] For O=c1c2ccccc2[s+]([O-])n1-c1ccc(Cl)cc1 (stereo not given) , what call appears in the results of this test?
[A] inactive

----------
# Target Desc: Protein skinhead-1 (Caenorhabditis elegans)
# Sequence (P34707 whole entry): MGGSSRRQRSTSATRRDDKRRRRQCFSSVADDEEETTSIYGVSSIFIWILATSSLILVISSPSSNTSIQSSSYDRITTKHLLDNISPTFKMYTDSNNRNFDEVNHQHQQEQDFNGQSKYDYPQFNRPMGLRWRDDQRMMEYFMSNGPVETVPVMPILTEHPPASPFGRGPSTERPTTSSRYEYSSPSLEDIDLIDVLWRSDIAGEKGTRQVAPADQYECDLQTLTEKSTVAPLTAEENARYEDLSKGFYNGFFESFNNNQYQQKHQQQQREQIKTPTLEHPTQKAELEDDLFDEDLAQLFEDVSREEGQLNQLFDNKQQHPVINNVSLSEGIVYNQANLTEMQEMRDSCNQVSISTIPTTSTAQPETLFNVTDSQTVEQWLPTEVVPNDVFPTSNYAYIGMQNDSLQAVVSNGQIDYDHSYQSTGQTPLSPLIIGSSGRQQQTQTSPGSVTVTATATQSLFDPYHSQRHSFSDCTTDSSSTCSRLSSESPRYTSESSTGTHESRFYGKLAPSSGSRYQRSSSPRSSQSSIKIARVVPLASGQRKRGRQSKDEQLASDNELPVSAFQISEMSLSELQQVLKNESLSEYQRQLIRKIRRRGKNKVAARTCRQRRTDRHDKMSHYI
# Format: functional
Active and inactive are the calls of the source.
Reported Endpoint: IC50

Entry COc1cc2c(cc1OC)[C@@H](NC(=O)CCc1ccccc1)[C@H](OCc1ccccc1)C2 — recorded IC50 = > 100 µM (inactive)

Entry CN(C)C(CNC(=O)c1cccc(S(=O)(=O)N2CCN(c3ccc(F)cc3)CC2)c1)c1ccccc1 (stereo not drawn) — recorded IC50 = 63.4 µM (inactive)

Entry NC(=O)c1cc(N)ccc1N1CCCC1 — recorded IC50 = > 100 µM (inactive)

This collection of values is drawn from ChEMBL document CHEMBL1201862.
